Test system: collagen 1 (COL1)
protocol text: WI-38 collagen 1 inhibition assay
Assay type: cell-based, human
experimental context: Cellular EC50, WI-38 cells; values are classes of LogEC50
assay endpoint: COL1 Efficacy (LogEC50)

# molecule, reported result
data = [
    ("O=C(Nc1nc(-c2ccccc2Cl)cs1)C1CCC(N2CCOCC2)CC1 (centres unmarked) [compound 432]", "− (−: inactive)"),
    ("CC(=O)N1CCN(c2ccc(C(=O)Nc3nc(-c4ccccc4Cl)cs3)s2)CC1", "+++ (+++: <−6)"),
    ("COc1ccc(C(=O)Nc2nc(-c3cccc4c3OCCO4)cs2)cc1", "++ (++: −5 to −6)"),
    ("Cc1ccc(C(=O)Nc2nc(-c3cccnc3C)cs2)cn1", "+++ (+++: <−6)"),
    ("COCCN1CCN(c2ccc(C(=O)Nc3nc(-c4ccccc4Cl)cs3)cc2)CC1", "+++ (+++: <−6)"),
    ("CS(=O)(=O)N1CCC(Oc2ccc(C(=O)Nc3nc(-c4ccccc4Cl)cs3)nc2)CC1", "+++ (+++: <−6)"),
    ("O=C(Nc1nc(-c2ccccc2Cl)cs1)c1ccc(N2CCC(CO)CC2)cn1", "+++ (+++: <−6)"),
    ("COCCOc1ccccc1-c1csc(NC(=O)c2ccc(OC)cc2)n1", "++ (++: −5 to −6)"),
]

Return the recorded COL1 Efficacy (LogEC50) value; entry: CS(=O)(=O)N1CCN(c2ccc(C(=O)Nc3nc(-c4ccccc4Cl)cs3)cc2)CC1
+++ (+++: <−6)
